Target: Tubulin
Assay: Inhibition of tubulin (unknown origin) polymerization after 40 mins by fluorescence assay
Property Name: IC50 (µM)
Form entry: value (µM) — number only.

Challenge: Returns the measured IC50 for the input compound. Input: COC(=O)c1ccc2c(c1)NC(=O)CN2C(=O)c1cc(OC)c(OC)c(OC)c1
Response given: 3.97

###

Let's look at some molecules and their measured IC50.
System: K562
Assay: Antiproliferative activity against human K562 cells after 72 hrs by MTT assay
Format: functional, cell-based
Conditions: K562, 72 h
Form entry: value (µM) — number only.

Use the examples below as a reference point.
>  <Mol>
COC(=O)c1ccc2c(c1)NC(=O)CN2Cc1ccc(OC)cc1

>  <Endpoint Value>
43.2

$$$$
>  <Mol>
COc1cccc2c1C(=O)c1c(O)c3c(c(O)c1C2=O)C[C@@](O)(C(=O)CO)C[C@@H]3O[C@H]1C[C@H](N)[C@H](O)[C@H](C)O1

>  <Endpoint Value>
0.89

$$$$

# next molecule below
Challenge: Returns the measured IC50 for the input molecule. Input: COc1cc(CN2CC(=O)Nc3cc(C(=O)NC4CCCCC4)ccc32)cc(OC)c1OC
Response given: 42.6

###

Let's look at some compounds and their measured pIC50.
Test system: HeLa
Experiment: Antiproliferative activity against human HeLa cells after 72 hrs by MTT assay
Assay type: functional, cell-based
Answer as the number alone; pIC50 is minus log10 of concentration in mol/L.

Use the examples below as a reference point.
>  <Mol>
COC(=O)c1ccc2c(c1)NC(=O)CN2C(=O)Cc1cc(OC)c(OC)c(OC)c1

>  <pIC50>
4.40

$$$$
>  <Mol>
COC(=O)c1ccc2c(c1)NC(=O)CN2Cc1cc(OC)c(OC)c(OC)c1

>  <pIC50>
5.56

$$$$
>  <Mol>
COc1ccc(C(=O)N2CC(=O)Nc3cc(C(=O)Nc4ccccc4)ccc32)cc1OC

>  <pIC50>
4.60

$$$$
>  <Mol>
COc1cc(C(=O)N2CC(=O)Nc3cc(C(=O)Nc4ccccc4)ccc32)cc(OC)c1OC

>  <pIC50>
4.58

$$$$

Challenge: Returns the measured pIC50 for the input compound. Input: COC(=O)c1ccc2c(c1)NC(=O)CN2C(=O)c1cc(OC)c(OC)c(OC)c1
Response given: 6.90

Challenge: Returns the measured pIC50 for the input compound. Input: COC(=O)c1ccc2c(c1)NC(=O)CN2C(=O)c1ccc(OC)cc1
Response given: 5.08

Challenge: Returns the measured pIC50 for the input compound. Input: COC(=O)c1ccc2c(c1)NC(=O)CN2Cc1ccc(OC)cc1
Response given: 4.79

Challenge: Returns the measured pIC50 for the input compound. Input: COC(=O)c1ccc2c(c1)NC(=O)CN2C(=O)c1ccc(OC)c(OC)c1
Response given: 5.85

Challenge: Returns the measured pIC50 for the input compound. Input: CCCCNC(=O)c1ccc2c(c1)NC(=O)CN2Cc1cc(OC)c(OC)c(OC)c1
Response given: 4.43

Challenge: Returns the measured pIC50 for the input compound. Input: COC(=O)c1ccc2c(c1)NC(=O)CN2Cc1ccc(OC)c(OC)c1
Response given: 4.42

###

Test system: K562
Experiment: Antiproliferative activity against human K562 cells after 72 hrs by MTT assay
Assay type: functional, cell-based
Conditions: K562, 72 h
Property Name: pIC50
Answer as the number alone; pIC50 is minus log10 of concentration in mol/L.

Use the examples below as a reference point.
>  <Mol>
COC(=O)c1ccc2c(c1)NC(=O)CN2C(=O)c1cc(OC)c(OC)c(OC)c1

>  <pIC50>
6.79

$$$$
>  <Mol>
COC(=O)c1ccc2c(c1)NC(=O)CN2C(=O)c1ccc(F)cc1

>  <pIC50>
5.01

$$$$
>  <Mol>
COc1cc(CN2CC(=O)Nc3cc(C(=O)O)ccc32)cc(OC)c1OC

>  <pIC50>
4.44

$$$$

Challenge: Quick check: pIC50 on K562, item COC(=O)c1ccc2c(c1)NC(=O)CN2Cc1cc(OC)c(OC)c(OC)c1 ?
Response given: 5.47

Challenge: Quick check: pIC50 on K562, item COC(=O)c1ccc2c(c1)NC(=O)CN2Cc1ccc(OC)c(OC)c1 ?
Response given: 4.36

Challenge: Quick check: pIC50 on K562, item COc1ccc(C(=O)N2CC(=O)Nc3cc(C(=O)Nc4ccccc4)ccc32)cc1OC ?
Response given: 4.37

Challenge: Quick check: pIC50 on K562, item CCCCNC(=O)c1ccc2c(c1)NC(=O)CN2Cc1cc(OC)c(OC)c(OC)c1 ?
Response given: 4.37

Challenge: Quick check: pIC50 on K562, item COc1ccc(/C=C\c2cc(OC)c(OC)c(OC)c2)cc1O ?
Response given: 7.89

###

Test system: SMMC-7721
Assay: Antiproliferative activity against human SMMC7721 cells after 72 hrs by MTT assay
Format: functional, cell-based
Conditions: SMMC-7721, 72 h
Property Name: pIC50
Answer as the number alone; pIC50 is minus log10 of concentration in mol/L.

Challenge: Returns the measured pIC50 for the input compound. Input: COC(=O)c1ccc2c(c1)NC(=O)CN2C(=O)c1ccc(OC)cc1
Response given: 5.27

Challenge: Returns the measured pIC50 for the input compound. Input: CCCCNC(=O)c1ccc2c(c1)NC(=O)CN2Cc1cc(OC)c(OC)c(OC)c1
Response given: 4.40

Challenge: Returns the measured pIC50 for the input compound. Input: COc1cc(C(=O)N2CC(=O)Nc3cc(C(=O)N4CCOCC4)ccc32)cc(OC)c1OC
Response given: 4.41

Challenge: Returns the measured pIC50 for the input compound. Input: COc1cc(CN2CC(=O)Nc3cc(C(=O)O)ccc32)cc(OC)c1OC
Response given: 4.41

Challenge: Returns the measured pIC50 for the input compound. Input: COc1cc(CN2CC(=O)Nc3cc(C(=O)NC4CCCCC4)ccc32)cc(OC)c1OC
Response given: 4.55

Challenge: Returns the measured pIC50 for the input compound. Input: COC(=O)c1ccc2c(c1)NC(=O)CN2Cc1ccc(OC)c(OC)c1
Response given: 4.48

###

Tested on: HeLa
Assay: Antiproliferative activity against human HeLa cells after 72 hrs by MTT assay
Assay type: functional, cell-based
Let's look at some compounds and their measured pIC50.
Answer as the number alone; pIC50 is minus log10 of concentration in mol/L.

>  <Mol>
COc1ccc(C(=O)N2CC(=O)Nc3cc(C(=O)N4CCOCC4)ccc32)cc1OC

>  <pIC50>
4.46

$$$$

Challenge: Returns the measured pIC50 for the input compound. Input: COC(=O)c1ccc2c(c1)NC(=O)CN2C(=O)c1ccc(F)cc1
Response given: 4.80

Challenge: Returns the measured pIC50 for the input compound. Input: COc1cc(CN2CC(=O)Nc3cc(C(=O)O)ccc32)cc(OC)c1OC
Response given: 4.49

Challenge: Returns the measured pIC50 for the input compound. Input: COc1cc(CN2CC(=O)Nc3cc(C(=O)NC4CCCCC4)ccc32)cc(OC)c1OC
Response given: 4.38
